FYI, the data here is from ChEMBL document CHEMBL1938254.

Tested on: DLD-1
Experiment: Inhibition of 20S proteasome in human DLD1 cells transfected with 4Ub-Luc gene assessed as bioluminescence induction factor at 0.5 uM after 8 hrs by luciferase reporter gene assay relative to epoxomicin
Format: cell-based
quantity: fold change (FC)
Format: numeric value only, no unit, no commentary.

Item under review: C=CCOC[C@H](C)C(=C)C(=O)[C@H](O)[C@@H](C)[C@H]1[C@@H](OC(C)=O)C[C@@]2(C)[C@@H]3CC[C@H]4[C@H](C)C(=O)C=C[C@@]45C[C@@]35CC[C@]12C . Reported fold change (FC)?
3.7

Item under review: C=C(C(=O)[C@H](O)[C@@H](C)[C@H]1[C@@H](OC(C)=O)C[C@@]2(C)[C@@H]3CC[C@H]4[C@H](C)C(=O)C=C[C@@]45C[C@@]35CC[C@]12C)[C@@H](C)CO . Reported fold change (FC)?
1.4

Item under review: C=C(C(=O)[C@H](O)[C@@H](C)[C@H]1[C@@H](OC(C)=O)C[C@@]2(C)[C@@H]3CC[C@H]4[C@H](C)C(=O)C=C[C@@]45C[C@@]35CC[C@]12C)[C@@H](C)COCOC(C)=O . Reported fold change (FC)?
1.7

Item under review: C=C(C(=O)[C@H](OC(=O)CCC(=O)O)[C@@H](C)[C@H]1[C@@H](OC(C)=O)C[C@@]2(C)[C@@H]3CC[C@H]4[C@H](C)C(=O)C=C[C@@]45C[C@@]35CC[C@]12C)[C@@H](C)COC(C)=O . Reported fold change (FC)?
2

Item under review: C=C(C(=O)[C@H](OC(C)=O)[C@@H](C)[C@H]1[C@@H](OC(C)=O)C[C@@]2(C)[C@@H]3CC[C@H]4[C@H](C)C(=O)C=C[C@@]45C[C@@]35CC[C@]12C)[C@@H](C)COC . Reported fold change (FC)?
1.4
